# test.target: Ubiquitin carboxyl-terminal hydrolase 17-like protein 5 (Homo sapiens)
# procedure.summary: ubiquitin-specific protease 17 DUB inhibitors, concentration-effect assay, cell-free, verification of initial screening actives (AID 1645864)
# experimental.setup: purified USP17, ubiquitin-rhodamine cleavage fluorescence, 3 h
Activity calls are given as the source filed them.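 Rule for the calls: active = maximal inhibition of USP17 at or above 30% in the confirmation dose-response, a value not among the printed readouts; inactive = the rest.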
IC50 values by entry

These recorded examples may help you get a feel for the data.
molecule | IC50
O=C(CCCn1c(=O)c2ccccc2n(CC(=O)NCc2ccccc2Cl)c1=O)NCc1ccc2c(c1)OCO2 | 2.2 µM
COc1ccc(NC(=O)c2nnn(-c3ccccc3F)c2C)cc1OC | > 50 µM (inactive)
COc1ccc(NC(=O)CNC(=O)c2ccc3nc(-n4cccc4)sc3c2)cc1 | 3.15 µM

API: the following record is the query input.
Documented IC50 of Cc1nn(-c2ccccc2)c(C)c1C(=O)OCC(=O)Nc1cccc(C#N)c1 : > 50 µM (inactive)

====

# test.target: Ubiquitin carboxyl-terminal hydrolase 17-like protein 5 (Homo sapiens)
# procedure.summary: ubiquitin-specific protease 17 DUB inhibitors, concentration-effect assay, cell-free, verification of initial screening actives (AID 1645864)
# experimental.setup: purified USP17, ubiquitin-rhodamine cleavage fluorescence, 3 h
Activity calls are given as the source filed them.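 How the source made its calls: active means maximal inhibition of USP17 at or above 30% in the confirmation dose-response, a value not among the printed readouts; inactive means the rest.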
Would you mind answering with one of these outcomes? active, inactive

Input: Write down the call the test reported for this compound. Item: O=C(Nc1cccc(Br)c1)c1cc(-c2cccnc2)n[nH]1
Output: active

Input: Which outcome was assigned to Cc1ccc(CNC(=O)c2ccc(N3C(=O)[C@@H]4Cc5ccccc5CN4C3=O)cc2)cc1 in this test?
Output: active

Input: How was CSc1ncccc1C(=O)NC1(O)C(=O)c2ccccc2C1=O classified in this test?
Output: active

Input: Which outcome was assigned to COc1ccccc1NC(=O)CNC(=O)c1nn(-c2ccc(OC)c(OC)c2)c(=O)c2ccccc12 in this test?
Output: active

Input: Just curious, what result did Cc1ccccc1C(=O)OCCN1C(=O)c2cccc3c(N4CCOCC4)ccc(c23)C1=O get here?
Output: inactive

====

# test.target: Ubiquitin carboxyl-terminal hydrolase 17-like protein 5 (Homo sapiens) (UniProt A8MUK1)
# Sequence (A8MUK1 whole entry, looked up): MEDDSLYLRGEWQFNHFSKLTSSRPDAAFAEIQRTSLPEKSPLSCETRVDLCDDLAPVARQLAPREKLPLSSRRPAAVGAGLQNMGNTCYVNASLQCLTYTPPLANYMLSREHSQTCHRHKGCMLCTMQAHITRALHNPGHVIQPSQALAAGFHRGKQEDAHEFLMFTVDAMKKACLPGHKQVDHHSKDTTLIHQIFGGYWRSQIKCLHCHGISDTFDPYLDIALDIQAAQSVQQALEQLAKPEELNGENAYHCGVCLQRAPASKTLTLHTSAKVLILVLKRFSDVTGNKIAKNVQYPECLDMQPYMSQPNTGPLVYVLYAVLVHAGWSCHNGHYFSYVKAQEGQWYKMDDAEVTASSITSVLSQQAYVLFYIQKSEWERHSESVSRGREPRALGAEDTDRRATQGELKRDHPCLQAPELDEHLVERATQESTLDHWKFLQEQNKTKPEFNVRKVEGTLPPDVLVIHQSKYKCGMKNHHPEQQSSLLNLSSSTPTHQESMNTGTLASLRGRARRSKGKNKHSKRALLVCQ
# procedure.summary: ubiquitin-specific protease 17 DUB inhibitors, concentration-effect assay, cell-free, verification of initial screening actives (AID 1645864)
# experimental.setup: purified USP17, ubiquitin-rhodamine cleavage fluorescence, 3 h
The source made the active and inactive calls.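 Rule for the calls: active = maximal inhibition of USP17 at or above 30% in the confirmation dose-response, a value not among the printed readouts; inactive = the rest.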
Reply using exactly one outcome from active, inactive

Here are 4 molecules together with their reported answers.
molecule | class.assignment
O=c1[nH]c2ccc(S(=O)(=O)Nc3ccc(O)c4ccccc34)cc2[nH]1 | active
Cc1nc(-c2ccc3c(c2)nnn3CCN2CCOCC2)no1 | inactive
C=Cc1ccc(Cn2cc(S(=O)(=O)N3CCOCC3)ccc2=O)cc1 | active
COc1ccc(NC(=O)C2Oc3ccc(C)cc3NC2=O)cc1Cl (stereo unspecified) | active

Input: In this assay, the call recorded for Cc1oc(-c2ccc(C(=O)NCC3COCCO3)cc2)nc1CN1CCc2ccccc21 (stereo unspecified) was what?
Output: inactive

Input: Any idea what this test logged for CSc1ccccc1C(=O)Nc1sc2c(c1C(N)=O)CCC(C)C2 (stereo unspecified) ?
Output: active

====

# test.target: Ubiquitin carboxyl-terminal hydrolase 17-like protein 5 (Homo sapiens)
# procedure.summary: ubiquitin-specific protease 17 DUB inhibitors, concentration-effect assay, cell-free, verification of initial screening actives (AID 1645864)
# experimental.setup: purified USP17, ubiquitin-rhodamine cleavage fluorescence, 3 h
Active and inactive are the calls of the source.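 Rule for the calls: active = maximal inhibition of USP17 at or above 30% in the confirmation dose-response, a value not among the printed readouts; inactive = the rest.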
Parameter call: string, one of active, inactive

As a guide, the following entries are already answered.
molecule | class.assignment
Cc1sc(-c2cccnc2)nc1OC(=O)c1ccc(Cl)c(Cl)c1 | inactive
COc1cc(OC)cc(-n2c(=O)c3sccc3n(CC(=O)c3ccc(F)cc3)c2=O)c1 | active
Cc1c(C)n(-c2ccc(Br)cn2)c2ncnc(NCCCO)c12 | active
CS(=O)(=O)N1CCCc2cc(C(=O)Nc3ccc4c(c3)OCO4)ccc21 | inactive
COC1C(O)=C2C(=O)O/C(C)=C/C=C/C=C/C=C/CC(c3ccccc3)NC(=O)/C=C/C=C/C=C\C=C\C2(C)C1O (stereo unspecified) | inactive

Input: Assay outcome for O=C1CC(NS(=O)(=O)c2ccc3ccccc3c2)CN1c1cccc(F)c1 (stereo unspecified) : what was it?
Output: active

Input: Short answer needed: outcome of this test for COc1ccc(NC(=O)COc2ccc3ccc(=O)oc3c2)cc1 ?
Output: active

Input: Which outcome did this test record for the molecule CCn1c(SCC(=O)N2c3ccccc3CC2C)nnc1-c1ccc2c(c1)OCCO2 (stereo unspecified) ?
Output: active
